tested on: BxPC-3 cells; assay: MTT assay, BxPC-3; assay type: cell-based; conditions: Homo sapiens; BxPC-3, 24-h MTT; read-out: Mean IC50 ± SD
For each entry below, report its IC50 value.
Answers are plain numbers, in µM.

Example entries and their recorded answers appear below.
COC(=O)[C@H](CC(C)C)N[C@@H](c1ccccc1)c1c(O)ccc2ccccc12 (mixture of isomers) [MMZ-167C] : 66.2
COC(=O)[C@@H](N[C@@H](c1ccccc1)c1c(O)ccc2ccccc12)C(C)C (mixture of isomers) [MMZ-33D] : 49.3
COC(=O)[C@H](Cc1ccccc1)N[C@@H](c1ccccc1)c1c(O)ccc2ccccc12 (mixture of isomers) [MMZ-45AA] : 48
O=c1[nH]cc(F)c(=O)[nH]1 [5-Fluorouracil, reference compound] : 39

Batch lookup, IC50 per entry.
1. COC(=O)[C@@H](N[C@@H](c1ccc(Cl)cc1)c1c(O)ccc2ccccc12)C(C)C (mixture of isomers) [MMZ-39AA]
2. COC(=O)[C@@H]1CCCN1[C@@H](c1ccccc1)c1c(O)ccc2ccccc12 (mixture of isomers) [MMZ-140C]

[60.8, 30.2]

* * *

Could you please report measured pIC50 for the items listed next?
tested on: HT-29 cells; assay: MTT assay, HT-29; format: cell-based; conditions: Homo sapiens, HT-29, 72 h, read-out: Mean IC50 ± SD
One number for each entry, as −log10 of the molar value.

COC(=O)[C@H](Cc1ccccc1)N[C@H](c1ccccc1)c1c(O)ccc2ccccc12 (mixture of isomers) [MMZ-45B] : 4.47

Query compound follows.
Look up and report measured pIC50 (HT-29 cells) for the following compound: COC(=O)C[C@H](N[C@H](c1ccccc1)c1c(O)ccc2ccccc12)C(=O)OC (mixture of isomers) [MMZ-147CE]
4.38

* * *

assay: MTT cell viability, WI-38 normal fibroblasts; assay type: cell-based; conditions: human, WI-38, 72 h, compound at IC50 concentration estimated for BxPC-3 cells; read-out: % cell viability ± SD
OBSERVED PROPERTY: viability at 72 h (%)
One number for each entry, in %.

Give reported viability at 72 h value for COC(=O)[C@H](Cc1ccccc1)N[C@H](c1ccccc1)c1c(O)ccc2ccccc12 (mixture of isomers) [MMZ-45B]
86.7

* * *

test system: BxPC-3 cells; test: MTT assay, BxPC-3; assay type: cell-based; settings: Homo sapiens; BxPC-3, 72-h MTT, independent experiment 2; read-out: IC50(2)
I'd be grateful if you could share measured pIC50 for these entries.
Answers are plain numbers, as −log10 of the molar value.

COC(=O)[C@H](Cc1ccccc1)N[C@@H](c1ccccc1)c1c(O)ccc2ccccc12 (mixture of isomers) [MMZ-45AA] : 4.84
COC(=O)[C@@H]1CCCN1[C@@H](c1ccccc1)c1c(O)ccc2ccccc12 (mixture of isomers) [MMZ-140C] : 4.48
COC(=O)[C@@H](N[C@@H](c1ccccc1)c1c(O)ccc2ccccc12)C(C)C (mixture of isomers) [MMZ-33D] : 4.54
COC(=O)[C@H](CC(C)C)N[C@@H](c1ccccc1)c1c(O)ccc2ccccc12 (mixture of isomers) [MMZ-167C] : 4.51

Provide each entry's pIC50 from the list below.
1. COC(=O)[C@@H](N[C@@H](c1ccc(Cl)cc1)c1c(O)ccc2ccccc12)C(C)C (mixture of isomers) [MMZ-39AA]
2. O=c1[nH]cc(F)c(=O)[nH]1 [5-Fluorouracil, reference compound]
3. COC(=O)C[C@H](N[C@@H](c1ccccc1)c1c(O)ccc2ccccc12)C(=O)OC (mixture of isomers) [MMZ-147B]

4.38
4.92
4.41
